Taken from ChEMBL document CHEMBL1201862.

I'd appreciate it if you could supply EC50 values for the items below.
# measured.on: Streptokinase A (Streptococcus pyogenes serotype M1, UniProt P10520)
# Sequence (P10520 whole entry): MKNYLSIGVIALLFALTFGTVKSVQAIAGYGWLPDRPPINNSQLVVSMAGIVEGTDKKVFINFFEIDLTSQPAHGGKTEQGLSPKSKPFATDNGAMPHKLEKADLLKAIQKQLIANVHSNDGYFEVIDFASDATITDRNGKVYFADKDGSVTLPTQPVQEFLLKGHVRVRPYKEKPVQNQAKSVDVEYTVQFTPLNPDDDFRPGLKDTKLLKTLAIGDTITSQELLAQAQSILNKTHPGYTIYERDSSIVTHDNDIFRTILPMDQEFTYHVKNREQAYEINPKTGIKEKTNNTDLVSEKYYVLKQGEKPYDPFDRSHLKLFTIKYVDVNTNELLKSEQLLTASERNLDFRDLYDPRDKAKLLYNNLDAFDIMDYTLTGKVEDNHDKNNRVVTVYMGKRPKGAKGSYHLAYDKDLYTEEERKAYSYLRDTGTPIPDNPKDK
# procedure.summary: S. pyogenes streptokinase expression inhibitors, potency, dose response, plasminogen activation absorbance, OD405 (AID 1914);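 also: secreted streptokinase activity via plasminogen activation per viability signal from cell pellet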
# Assay type: functional, Streptococcus pyogenes M1 GAS
Calls of active or inactive are those of the source.

EC50 for CC1=C(C#N)c2nc(N)c(C#N)c(C)c2/C1=C\c1ccc(C)cc1 is 12.3 µM (active)

// O=c1c(C(c2ccc([N+](=O)[O-])cc2)c2c(O)oc3ccccc3c2=O)c(O)oc2ccccc12 : EC50 value = 13.4 µM (active)

Sample COc1ccc(NC(=O)CN(C)C(=O)/C=C/c2cn(-c3ccccc3)nc2-c2ccc(C)cc2)cc1 ; EC50 observed: > 150 µM (not active)

Recorded EC50 (compound COc1ccc(CCNC(=O)c2cccc(NS(=O)(=O)c3ccccc3F)c2)cc1OC ): > 150 µM (not active)

The reported EC50 of the compound FC(F)(F)c1nc(N2CCN(c3ccccc3)CC2)nc2c1CCCCC2 was 5.5 µM (active)

Please fill in: EC50 reported for O=C(CN(c1ccc(Cl)c(C(F)(F)F)c1)S(=O)(=O)c1ccccc1)N/N=C/c1cccc2c1OCCO2 = 32.9 µM (active)

###

# measured.on: Protein skinhead-1 (Caenorhabditis elegans, UniProt P34707)
# Sequence (P34707 whole entry): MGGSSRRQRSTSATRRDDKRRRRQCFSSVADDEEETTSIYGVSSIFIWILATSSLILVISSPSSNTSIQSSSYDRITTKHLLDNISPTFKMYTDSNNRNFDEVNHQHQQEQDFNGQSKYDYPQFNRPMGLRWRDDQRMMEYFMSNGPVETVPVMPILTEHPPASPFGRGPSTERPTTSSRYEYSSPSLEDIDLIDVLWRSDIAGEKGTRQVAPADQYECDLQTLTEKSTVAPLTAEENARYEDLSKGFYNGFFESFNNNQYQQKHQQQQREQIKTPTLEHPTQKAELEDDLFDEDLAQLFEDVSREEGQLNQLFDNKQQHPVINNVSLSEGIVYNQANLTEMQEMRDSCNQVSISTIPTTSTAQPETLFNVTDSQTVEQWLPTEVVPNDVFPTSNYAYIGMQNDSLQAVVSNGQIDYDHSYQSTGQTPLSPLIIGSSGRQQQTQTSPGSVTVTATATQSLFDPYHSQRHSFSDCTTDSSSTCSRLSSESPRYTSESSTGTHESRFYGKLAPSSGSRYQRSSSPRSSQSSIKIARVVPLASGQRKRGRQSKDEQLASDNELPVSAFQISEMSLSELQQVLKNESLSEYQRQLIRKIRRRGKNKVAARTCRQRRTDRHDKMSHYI
# Assay type: functional
Activity calls are given as the source filed them.
Would you mind answering with one of these outcomes? T for active, F for inactive

Problem: What outcome does the record of this test show for O=[N+]([O-])c1ccc(COc2cccc3cccnc23)cc1 ?
Solution: F

Problem: Which outcome was entered for the molecule CC(=O)NCCc1cc2cc(C)c(C)cc2nc1O in this test?
Solution: F

Problem: Status in this test for O=C(Nc1ccc(Br)cc1Cl)c1cnccn1 ?
Solution: F

Problem: Hey, what did the test say about COc1nc(-c2ccccc2)ccc1-c1noc(-c2ccco2)n1 ?
Solution: F

Problem: What is the recorded call for this molecule in the test? C=CCN(c1ccc(C(=O)NC(C)C)cc1)S(C)(=O)=O
Solution: F

Problem: Kindly provide the recorded test outcome for the following molecule: O=c1c2cc(-c3ccccc3)sc2ncn1/N=C/c1ccco1
Solution: T

Problem: For this molecule, state the assay outcome: N#C/C(=C\c1cccnc1)c1ccc(Br)cc1
Solution: F

Problem: Record request — test call for COc1cccc(-c2nc(-c3cccs3)no2)c1
Solution: F

Problem: Assay result, entry CN(C)c1ccc(/C=C(/C#N)C(=O)Nc2nc3c(s2)CCN(Cc2ccccc2)C3)cc1 — outcome?
Solution: F

Problem: // return assay outcome for CC1Cc2ccccc2N1C(=O)CSc1nc2ccccc2o1 (configuration not stated)
Solution: F

Problem: Given Cc1cc(C(=O)CN2C(=O)NC3(CCCc4ccccc43)C2=O)c(C)n1Cc1ccccc1 (configuration not stated) , state the outcome it received in this test.
Solution: F

Problem: For this molecule, state the assay outcome: CCn1c2ccc(F)cc2c2nc3ccccc3nc21
Solution: F
